- study-target: human histamine H3 receptor (Homo sapiens)
- assay-summary: CRE-SPAP gene transcription in forskolin-stimulated CHO-H3-SPAP cells
- details: pIC50, CRE-SPAP, low potency component, CHO-H3-SPAP cells, absence of forskolin, with PTX pre-incubation
readout-name: IC50

Task: // IC50 lookup, key: NCCCCCc1cnc[nH]1
Result: 5.13 µM

###

- study-target: human histamine H3 receptor (Homo sapiens, UniProt Q9Y5N1)
- Sequence (Q9Y5N1 whole entry): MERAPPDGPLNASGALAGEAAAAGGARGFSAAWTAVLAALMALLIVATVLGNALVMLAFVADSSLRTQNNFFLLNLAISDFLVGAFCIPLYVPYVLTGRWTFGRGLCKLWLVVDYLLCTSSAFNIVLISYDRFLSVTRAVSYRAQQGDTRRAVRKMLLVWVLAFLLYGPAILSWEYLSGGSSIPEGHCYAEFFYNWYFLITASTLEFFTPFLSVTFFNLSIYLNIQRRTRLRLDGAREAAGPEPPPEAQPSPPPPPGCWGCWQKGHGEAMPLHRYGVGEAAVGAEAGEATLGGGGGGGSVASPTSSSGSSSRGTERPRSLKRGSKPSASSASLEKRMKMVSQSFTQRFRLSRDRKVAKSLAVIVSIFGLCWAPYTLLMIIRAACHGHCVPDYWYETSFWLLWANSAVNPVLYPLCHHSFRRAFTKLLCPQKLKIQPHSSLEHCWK
- assay-summary: 3H-cAMP accumulation in forskolin-stimulated CHO-H3-SPAP cells
- Type: cell-based
- Design: secondarily transfected with the full length human histamine H3 receptor; host or cells: CHO-K1 cells with CRE-SPAP reporter (clonal line CHO-H3-SPAP)
- details: pIC50, 3H-cAMP accumulation, 5 hours incubation, partial agonist response, 5 hours incubation with ligand
readout-name: pIC50
When answering, recall that pIC50 equals minus log10 of the concentration in mol/L, and write that number alone.

Task: Entry Br.Br.c1nc(CCCC2CCNCC2)c[nH]1 has what pIC50?
Result: 8.42
